Biological target: PD-1/PD-L1 interaction (Homo sapiens, UniProt Q9NZQ7)
Construct: expressed in transfected cells; host or cells: CHO cells (aAPC-PD-L1) co-cultured with Jurkat cells overexpressing PD-1 and an NFAT-luciferase reporter
Sequence (Q9NZQ7 19-290): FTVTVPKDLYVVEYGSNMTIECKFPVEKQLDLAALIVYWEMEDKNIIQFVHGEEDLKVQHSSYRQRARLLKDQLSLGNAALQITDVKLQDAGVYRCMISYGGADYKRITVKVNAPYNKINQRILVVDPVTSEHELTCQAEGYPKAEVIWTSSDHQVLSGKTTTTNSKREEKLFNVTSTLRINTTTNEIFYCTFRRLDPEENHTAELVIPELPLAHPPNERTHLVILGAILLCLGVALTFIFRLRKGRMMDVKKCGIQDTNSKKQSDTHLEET
Test: PD-1/PD-L1 NFAT reporter co-culture assay
Format: cell-based
Conditions: Jurkat PD-1 NFAT-luciferase cells co-cultured with aAPC-PD-L1 CHO cells, 6 hrs at 37° C.; read-out: EC50 NFAT Luciferase
pEC50: −log10 of the molar value.
result-type: pEC50

>  <compound>
C[C@@](CO)(NCc1cc(Br)c(OCc2cccc(-c3cccc(-c4ccc5c(c4)C[C@@H](N)C5)c3Cl)c2Cl)nc1OCc1cncc(S(C)(=O)=O)c1)C(=O)O

>  <reported-value>
6.79

$$$$

a: Cc1c(COc2nc(OCc3ccc(F)c(C#N)c3)c(CNC[C@@H](O)CC(=O)O)cc2Br)cccc1-c1cccc(COc2nc(OCc3ccc(F)c(C#N)c3)c(CNC[C@@H](O)CC(=O)O)cc2Br)c1C
b: Cc1c(COc2cc(OCc3cncc(C#N)c3)c(CN[C@@H]3CCC[C@@H]3O)cc2Cl)cccc1-c1cccc(-c2ccc3c(c2)CCC3N2CC[C@H](C(=O)O)C2)c1C (some centres unmarked)
c: COc1nc(OCc2cccc(-c3cccc(COc4ccc(CNCC(O)C(F)(F)C(=O)O)c(OC)n4)c3C)c2C)ccc1CNCC(O)C(F)(F)C(=O)O (centres unmarked)
Enquiry: Arrange the 3 compounds by rising pEC50, starting with the smallest. # output: labels, in the requested order
Return: c, a, b

A: CC(C)(NCc1cc(Br)c(OCc2cccc(-c3cccc(-c4ccc5c(c4)C[C@@H](N)C5)c3Cl)c2Cl)nc1OCc1cncc(C#N)c1)C(=O)O
B: Cc1c(COc2nc(OCCCCC#N)c(CNC[C@@H](O)CC(=O)O)cc2Br)cccc1-c1cccc(COc2nc(OCCCCC#N)c(CNC[C@@H](O)CC(=O)O)cc2Br)c1C
Enquiry: Kindly identify which of A and B has the larger recorded pEC50 value. Which one? Tell me its label.
Return: A

====

Biological target: PD-1/PD-L1 (Homo sapiens, UniProt Q9NZQ7)
Experiment: PD-1/PD-L1 biochemical protein-protein interaction assay (ALPHA)
Assay type: binding
Conditions: 0.3 nM His tagged PD-L1, 2.5 nM biotinylated Fc-PD-1, 60 minutes at 25° C., read-out: IC50 PD-L1-PD-1 Alpha IC50-mono PD-L1-fcP-D1
pIC50: −log10 of the molar value.
result-type: pIC50

# count of solved cases: 5
>  <molecule>
C[C@@](CO)(NCc1cc(Cl)c(OCc2cccc(-c3cccc(-c4ccc(OCCNCCO)cc4)c3Cl)c2Cl)nc1OCc1cc(C#N)cc(C#N)c1)C(=O)O [Example 352]

>  <reported-value>
9.68

$$$$
>  <molecule>
N#CCOc1cc(-c2cccc(-c3cccc4c3CC[C@@H]4Oc3nc(OCC#N)c(CNC[C@@H]4CCC(=O)N4)cc3Cl)c2Cl)ccc1CNC[C@@H]1CCC(=O)N1 [Example 653]

>  <reported-value>
9.77

$$$$
>  <molecule>
Cc1c(COc2cc(OCc3cncc(C#N)c3)c(CNC[C@@H](O)CC(=O)O)cc2Cl)cccc1-c1cncc(COc2cc(OCc3cncc(C#N)c3)c(CNC[C@@H](O)CC(=O)O)cc2Cl)c1 [Example 208]

>  <reported-value>
8.85

$$$$
>  <molecule>
COc1nc(O[C@H]2CCc3c(-c4cccc(-c5ccc(CNC[C@@H]6CCC(=O)N6)cc5)c4Cl)cccc32)c(Cl)cc1CN1CC(C(=O)O)C1 [Example 721]

>  <reported-value>
10.19

$$$$
>  <molecule>
COc1nc(-c2cc(F)cc(-c3cccc4c3CC[C@@H]4Oc3ccc(CNC[C@@H]4CCC(=O)N4)c(OCc4cncc(C#N)c4)n3)c2Cl)ccc1CNC[C@@H]1CCC(=O)N1 [Example 800]

>  <reported-value>
8.89

$$$$

P: COC(=O)[C@@](C)(CO)NCc1cc(Br)c(O[C@H]2CCc3c(-c4cccc(-c5ccc(CNC[C@@H]6CCC(=O)N6)c(OC)n5)c4Cl)cccc32)nc1OCc1cncc(C#N)c1 [Example 743]
Q: COc1nc(-c2cccc(-c3cccc4c3CC[C@@H]4Oc3nc(OC)c(CN[C@@](C)(CO)C(=O)O)cc3Cl)c2Cl)ccc1CN[C@@H]1CCC[C@@H]1O [Example 645]
R: COc1nc(O[C@H]2CCc3c(-c4cccc(-c5ccc(CNC[C@@H]6CCC(=O)N6)c(OC(F)F)c5)c4Cl)cccc32)c(Cl)cc1CNC[C@@H]1CCC(=O)N1 [Example 657]
Enquiry: Rank ascending by pIC50. To answer, write out the labels according to the requested order.
Return: R, P, Q

====

Target: PD-1/PD-L1 (Homo sapiens, UniProt Q9NZQ7)
Experiment: PD-1/PD-L1 biochemical protein-protein interaction assay (ALPHA)
Conditions: 0.3 nM His tagged PD-L1, 2.5 nM biotinylated Fc-PD-1, 60 minutes at 25° C., read-out: IC50 PD-L1-PD-1 Alpha IC50-mono PD-L1-fcP-D1
result-type: IC50 (nM)

>  <mol>
C[C@@](CO)(NCc1cc(Cl)c(OCc2cccc(-c3cccc(-c4ccc(CNC[C@@H]5CCC(=O)N5)cc4)c3Cl)c2Cl)nc1OCc1cc(C#N)cc(C#N)c1)C(=O)O

>  <IC50 / nM>
0.064

$$$$
>  <mol>
COc1nc(O[C@@H]2c3cccc(-c4cccc5c4C[C@@H](F)[C@@H]5Oc4nc(OC)c(CNC[C@@H](O)CC(=O)O)cc4Cl)c3C[C@H]2F)c(Cl)cc1CNC[C@@H](O)CC(=O)O

>  <IC50 / nM>
1.85

$$$$
>  <mol>
COc1nc(OCc2cccc(-c3cccc(-c4ccc(CNC[C@@H]5CCC(=O)N5)cc4)c3Cl)c2Cl)c(Br)cc1CNC[C@@H]1CCC(=O)N1

>  <IC50 / nM>
1.32

$$$$

1: COc1nc(O[C@H]2CCc3c(-c4cccc(-c5ccc(CNC[C@@H]6CCC(=O)N6)cc5)c4Cl)cccc32)c(Cl)cc1CN1CC[C@H](C(=O)O)C1
2: Cc1c(COc2cc(OCc3cncc(C#N)c3)c(CN[C@@](C)(CO)C(=O)O)cc2Cl)cccc1-c1cccc(-c2ncc(CN3CC[C@@H](O)C3)cn2)c1C
Enquiry: # return whichever of 1 and 2 has the smaller IC50 Please indicate the selected item by its label.
Return: 1
(1: 0.064 nM, 2: 0.172 nM)

====

Target: interaction between the recombinant extracellular domain (ECD) of PD-1 and native cell-bound PD-L1 (Homo sapiens)
Experiment: CHO/PD-L1 cell capture assay
Conditions: CHO cells overexpressing PD-L1, pre-incubated 1 hr with compound, captured on biotinylated Fc-PD-1 coated plates, 75 min at room temperature
result-type: EC50 (nM)

Some compounds with recorded EC50:
>  <mol>
Cc1c(COc2ccc(CNC[C@@H](O)CC(=O)O)c(OCc3cncc(C#N)c3)c2)cccc1-c1cccc(COc2ccc(CNC[C@@H](O)CC(=O)O)c(OCc3cncc(C#N)c3)c2)c1C

>  <EC50 / nM>
200

$$$$
>  <mol>
Cc1c(COc2cc(OCc3cncc(C#N)c3)c(CNCCO)cc2Cl)cccc1-c1cccc2c1CCN2C(=O)c1ccc(CNCCO)c(OCc2cncc(C#N)c2)c1

>  <EC50 / nM>
394

$$$$
>  <mol>
COc1nc(OCc2cccc(-c3cccc(COc4nc(OC)c(CN5CC[C@@H](O)C[C@H]5C(=O)O)cc4Cl)c3C)c2C)c(Cl)cc1CN1CC[C@@H](O)C[C@H]1C(=O)O

>  <EC50 / nM>
226

$$$$

A: COc1nc(OCc2cccc(-c3cccc(COc4nc(OC)c(CN[C@@H]5CC[C@H](C(=O)O)C5)cc4Cl)c3C)c2C)c(Cl)cc1CN[C@@H]1CC[C@H](C(=O)O)C1
B: COc1nc(OCc2cccc(-c3cccc(COc4nc(OC)c(CNC[C@@H](O)C(=O)O)cc4Cl)c3C)c2C)c(Cl)cc1CNC[C@@H](O)C(=O)O
Enquiry: Between the entries labelled A and B , which has a larger EC50 value on record? To answer, give the label that identifies your chosen option.
Return: A

====

Molecular target: PD-1/PD-L1 interaction (Homo sapiens, UniProt Q9NZQ7)
Construct: expressed in transfected cells; host or cells: CHO cells (aAPC-PD-L1) co-cultured with Jurkat cells overexpressing PD-1 and an NFAT-luciferase reporter
Test: PD-1/PD-L1 NFAT reporter co-culture assay
Assay type: cell-based
Conditions: Jurkat PD-1 NFAT-luciferase cells co-cultured with aAPC-PD-L1 CHO cells, 6 hrs at 37° C.; read-out: EC50 NFAT Luciferase
result-type: EC50 (nM)

>  <mol>
COc1nc(O[C@H]2CCc3c(-c4cccc5c4CC[C@@H]5Oc4nc(OC)c(CN[C@@](C)(CO)C(=O)O)cc4Br)cccc32)c(Br)cc1CN[C@@](C)(CO)C(=O)O

>  <unit-info>
nM

>  <EC50>
29

$$$$
>  <mol>
C[C@@](CO)(NCc1cc(Cl)c(O[C@H]2CCc3c(-c4cccc5c4CC[C@@H]5Oc4nc(OCc5cncc(C#N)c5)c(CNCCO)cc4Cl)cccc32)nc1OCc1cncc(C#N)c1)C(=O)O

>  <unit-info>
nM

>  <EC50>
279

$$$$

P: Cc1c(COc2cc(OCc3cncc(C#N)c3)c(CNC[C@@H](O)CC(=O)O)cc2Cl)cccc1-c1cccc(NC(=O)c2ccc(CNC[C@@H](O)CC(=O)O)cn2)c1C
Q: COc1nc(OCc2cccc(-c3cccc(COc4nc(OC)c(CN[C@H](C(=O)O)[C@@H](C)O)cc4Cl)c3C)c2C)c(Cl)cc1CN[C@H](C(=O)O)[C@@H](C)O
R: COc1nc(OCc2cccc(-c3cccc(-c4ccc(OCCNC[C@@H](O)CC(=O)O)cc4)c3C)c2C)c(Cl)cc1CNC[C@@H](O)CC(=O)O
Enquiry: Ascending sort, EC50. Output spec: a listing of the labels in the requested order.
Return: Q, P, R
